Experiment: Solubility at pH 7.4 by equilibrium solubility assay
Type: physicochemical
Conditions: buffer
assay-metric: solubility thermodynamic (µg/mL)
Give bare numbers, in µg/mL.

Measured solubility thermodynamic of CNC(=O)c1cc(F)ccc1CNC(=O)c1nc(N2CCCCS2(=O)=O)c2cccnc2c1O : 2.3

---

Experiment: Oral bioavailability in rhesus monkey at 1 mg/kg
Type: ADME, organism-based, Macaca mulatta
Conditions: in vivo
assay-metric: bioavailability (%)
Give bare numbers, in %.

Hi there! I need bioavailability for each item below, if you can.
1. O=C(NCc1ccc(F)cc1)c1nc(N2CCCCS2(=O)=O)c2cccnc2c1O
2. CNC(=O)c1cc(F)ccc1CNC(=O)c1nc(N2CCCCS2(=O)=O)c2cccnc2c1O

Response:
[51, 23]
